Data provenance: PubChem BioAssay

Below, each entry is listed with its recorded composite z-score.
Tested on: Sam68 (KHDRBS1)
Assay: compounds binding KHDRBS1 protein – biochemical, small-molecule microarray, 635 nm fluorescence, primary screen (AID 1125);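 also: score merges 667 nm channel intensity with signal to noise over triplicate slides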
Details: higher = more signal
Endpoint Name: composite z-score

1. COC(=O)C(CC#Cc1ccc2c(c1)[C@]1(C(=O)N2)[C@H](c2ccccc2OCCO)N2[C@H](c3ccccc3)[C@H](c3ccccc3)OC(=O)[C@H]2[C@@H]1C(=O)Nc1nc2ccccc2s1)C(=O)OC: 1.31
2. COC(=O)[C@@]1(Cc2ccccc2)[C@H]2c3cc(C(=O)N(C)C)n(Cc4ccccn4)c3C[C@H]2CN1C(=O)c1ccccc1: 1.03
3. C=C(CCCC)/C(=C/C[C@H](OC(=O)c1ccncc1)c1ccc(CO)o1)c1cc(C(=O)OC)ccc1OC: 1.31
4. NC(=O)[C@@H]1[C@H]2C(=O)O[C@H](c3ccccc3)[C@H](c3ccccc3)N2[C@H](c2ccccc2OCCO)[C@@]12C(=O)Nc1ccc(C#CCCO)cc12: 0.13
5. C[N+](C)(C)CCCC[C@@H]1NC(=O)[C@@H]2C[C@H](C(=O)O)[C@H](c3cccc(OCCO)c3)N2C1=O: -0.0913
6. COc1ccc(C(=O)Nc2ccc3c(c2)[C@]2(O[C@@H](CCO)[C@H]([Si](C)(C)c4ccc(OC)cc4)[C@H]2C)C(=O)N3Cc2ccccc2)cc1: 1.01
7. C[N+](C)(C)CCCCCCNC(=O)[C@H]1C[C@H]2C(=O)N3CCC[C@H]3C(=O)N2[C@H]1c1cccc(OCCO)c1: 0.976
8. C=CCC(OC(C)=O)[C@@H]1[C@@H](N(Cc2cc3ccccc3o2)C(=O)Cc2ccc(OC)cc2)c2cc(OCCCO)ccc2N1C(=O)c1ccc(-c2ccccc2)cc1 (stereo partly drawn): -0.494
9. COc1ccc([Si](C)(C)[C@@H]2[C@@H](CCO)O[C@]3(C(=O)N(Cc4ccccc4)c4ccc(N5CCCCC5=O)cc43)[C@H]2C)cc1: 1.31
10. COC(=O)C(CC#Cc1ccc2c(c1)[C@]1(C(=O)N2)[C@H](c2ccc(O)cc2)N2[C@H](c3ccccc3)[C@H](c3ccccc3)OC(=O)[C@H]2[C@@H]1C(N)=O)C(=O)OC: -1.43
11. C[C@@]1([C@@H](NC(=O)c2cccs2)c2ccc(-c3ccccc3)cc2)C[C@H]1C1CCCCC1: -0.307
12. C=CCC(OC(C)=O)[C@@H]1[C@@H](N(Cc2ccc(-c3ccccc3)cc2)C(=O)c2cccc3ccccc23)c2cc(OCCCO)ccc2N1C(=O)c1ccc2ccccc2n1 (stereo partly drawn): -0.168
13. C[C@@H]1ON(c2ccccc2)[C@H](c2ccccc2)[C@H]1C(=O)N1C(=O)OC[C@H]1Cc1ccccc1: 0.885

====

# Lookup of reported composite z-score keyed by entry
Test: probe aLAP1 signal on lysate-treated microarray – cell lysate, small-molecule microarray, COS7 lysate, primary screen (AID 1124);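 also: lysate comes from COS7 cells expressing LAP1 and is applied at 0.3 µg/mL; score merges spot fluorescence near 667 nm with signal-to-noise over triplicate slides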
Details: probe aLAP1, fluorescence, higher = more signal
Endpoint Name: composite z-score

1) CCCC=C(CCC)[C@@H](NS(=O)(=O)c1cccc2cccnc12)c1ccc(C(=O)OC)cc1: 0.392
2) CCCCC(=C=CC[C@H](O)c1ccccc1OCCO)C[C@H](O)c1ccccn1: 0.271
3) CN1C(=O)C2C=CC(C(O)COCc3ccccc3)N(Nc3ccccc3)C2C1=O (centres undefined): -0.0468
4) CCOC(=O)C[C@H]1[C@H](OC(=O)Cc2ccc3c(c2)OCO3)[C@@H](NC(=O)c2ccccc2)c2cc(OCCCO)ccc2N1C(=O)c1ccccc1: 0.379
5) COCCOC(=O)N1C(=O)[C@@]2(c3cc(C#CC4(O)CCCCCC4)ccc31)[C@H](C(=O)NC[C@H](O)c1ccccc1)[C@H]1C(=O)O[C@H](c3ccccc3)[C@H](c3ccccc3)N1[C@@H]2c1ccc(OCCO)cc1: 0.217
6) CCOC(=O)C1=CCC(c2cccc(Cl)c2)O1 (centres undefined): -0.064
7) C=CCOC(=O)[C@@H]1[C@H]2C(=O)O[C@H](c3ccccc3)[C@H](c3ccccc3)N2[C@H](c2ccc(OCCOC(=O)[C@@H]3C[C@@H]4C(=O)N5CCC[C@H]5C(=O)N4[C@@H]3c3cccc(OCCO)c3)cc2)[C@@]12C(=O)Nc1ccc(I)cc12: 0.167
8) O=C1O[C@H](c2ccccc2)[C@H](c2ccccc2)N2[C@H]1[C@@H](C(=O)N1CCCCCCC1)[C@]1(C(=O)Nc3ccc(C#CCCO)cc31)[C@H]2c1ccc(OCCO)cc1: 1.12
9) COC(=O)[C@]1(Cc2ccccc2CN=[N+]=[N-])N=C(c2ccc(OCCCO)cc2)O[C@@H]1c1ccccc1CN=[N+]=[N-]: 0.838
10) COCC(=C=CC[C@@H](O)c1ccccc1OCCO)C[C@@H](O)c1ccccn1: 0.583
11) CC1=C2[C@@H](CCc3ccccc3)OB(O)C[C@@H]2[C@@H]2C(=O)C=CC(=O)[C@@H]2C1: 0.0435
12) Cc1cc(C)c(C(O)C2C=CC3C(=O)N(c4ccccc4)C(=O)C3N2Nc2ccccc2)c(C)c1 (centres undefined): 0.0109
13) CN(C)CCCN1C(=O)[C@@]2(Cc3ccccc31)c1ccccc1C(=O)N(Cc1ccccc1)[C@H]2c1ccc(CO)cc1: -0.485
14) COCCOC(=O)N1C(=O)[C@@]2(c3cc(C#CCCO)ccc31)[C@H](C(=O)NC[C@H](O)c1ccccc1)[C@H]1C(=O)O[C@H](c3ccccc3)[C@H](c3ccccc3)N1[C@@H]2c1ccccc1OCCO: 1.32
